Test system: K4 kissing-loop RNA reporter;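 further: bound reporter read as fluorescence of individual clusters on recovered sequencing chips by microscopy, with normalized cluster intensities fitted with a binding model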
Assay: apparent KD of K4 kissing-loop reporter; higher = weaker reporter binding
Details: Eterna round: R107; input ligand: arginine 13.2 mM

Sequence | Measured On | Unit Of Measurement | apparent KD of K4 kissing-loop reporter
UGACUACAAAAGGAAUAAUCCUAGUGAUGUUAGGAUAUGCUGAUAAGCAGAAGGAACGGAGAUCGAAAGAUCUCAAAUGUAGUCU [whbob_Ex_FMNA__2th191] | K4 kissing-loop RNA reporter | nM | 89.8
GCAGUGAUGUUGCGAAUCGGCCAUGAUACAGAGGAUAUCGUGCCUUCGAGAAGGUUGUAUAGAGGAUACGAUAUUAUAAAUGACG [Same State FMN A GF 1] | K4 kissing-loop RNA reporter | nM | 384
UAAUAAAUUCCAGCUAUAUCACUCUUCGAAGGAGCGGACGAAAGUCCAGGUAGGUCGCGAAGAGUGAUGUUCUUUGCGGCGCUGG [Omei KL Arginine A Exc A v5] | K4 kissing-loop RNA reporter | nM | 60.8
AAAGCAUUGAGAAGGAGCGUGUCGUGGAGUGAUGUUCCAUUGUAGACCUAAGGUCUACAAGCACAGGUAGGUCGCUCAUUGCUAA [JR_Nu_SSArginiB_Sub023] | K4 kissing-loop RNA reporter | nM | 148
AAACAUCACUGGGAGUGAUGUUCUCAGUGACGAGGACCGGUACGGCCGCCACUCGCGAGAGAUUUAGUCUAGUAUUGACUGCAUU [Excl Tryptophan A V11] | K4 kissing-loop RNA reporter | nM | 273
AUUAUAAAGACGGCCGCCACUGAGAGUAGUGAUGUUACUCUUUUCCUUUAGAUAUUAUAUUUUAUCAGGACCGGGUUUUUUGAUU [JR_Nu_ExcTryptoB_Sub025] | K4 kissing-loop RNA reporter | nM | 86.7
CGAGUACAUUGCGAUACCAGCGAUAGCAGUUCAACGCGCAGUCCGUUUAGUGAUGUUAGACGCCCUUGGCAGCGCUUCCUGGCAA [theeternabot_exclusion_KL_Theo_B_44] | K4 kissing-loop RNA reporter | nM | 324
AUGGUUGUCGUAGGAUAUGUAGGAUAUUCUAAAAUAUGAAGUGAUGUUUCUAUAAUAAGAAGAAGGACAGAAGGACGAUAACCAC [FmnBS 1 - SaraBot transfer #DoubleAptamer] | K4 kissing-loop RNA reporter | nM | 104
UGAUAGGACAGAAGGAGCGGGAGUGAUGUUCCCAAAAGUAUAAGGUGUCAAAAGACACCCUCCCAGGUAGGUCGCUGUCCUAUCU | K4 kissing-loop RNA reporter | nM | 330
CCAUCGCUAUUCGAUACCAGCUACUUAGUGAUGUUAAGUUAAAAUAAAUUGUAGAUUAAAAGCCCUUGGCAGCGAAUAGUGAUGG [Theophylline B K4 19] | K4 kissing-loop RNA reporter | nM | 134
GCACACUAGUAAACUAGUGUGUUAACUGAAGGAGCGUGAAUAAUCACAGGUAGGUCGCAGUUUGUCAGUGAUGUUGACACGAGUG [Arg A SS t2] | K4 kissing-loop RNA reporter | nM | 217
AGCCGUCUAAGUGAUGUUUAGGCAUGUCAGCGAGGACCGGUACGGCCGCCACUCGUGCUAUUGAGAUUUCGGGUAGCCCACGUAG [theeternabot_sameState_KL_Trp_A_20] | K4 kissing-loop RNA reporter | nM | 187
UCGGAGGGAGCGGCCGCCACUGUAUUACCUCGACGAACGCCGGUUUUCAUGAAGUGAUGUUUCGCCAGGACCGGGCUAAUCUGAG [theeternabot_exclusion_KL_Trp_B_46] | K4 kissing-loop RNA reporter | nM | 202
CGUUUAUAGCAGGAUACCAGUACGGAUAAGGUACGUUAAUAGUAGAGUGAUGUUCUAAAGUACCCUUGGCAGCUUAGAGUGAGUG [#20 K4 Theophylline B Exclusion] | K4 kissing-loop RNA reporter | nM | 147
UUACAGCCCAGUGAUGUUGGGUAGCGGCGGCGAGGACCGGUACGGCCGCCACUCGGCGCACAGGCGGAGUGAUGUUUUGCUUAAA [Same State Tryptophan A GF 11] | K4 kissing-loop RNA reporter | nM | 590
CGUUUAUAGCAGGAUACCAGUACCCAUUAUGUACGUUUAUAGUAGAGUGAUGUUCUAAAGUACCCUUGGCAGCUUCCCGUGACCC [ExTheophylB.Z] | K4 kissing-loop RNA reporter | nM | 171
GAUGGUGGCAGUGAAGUGAUGUUUCAUGAUACCAGUUUUAUAAGUAACCCUUGGCAGCAUCGUACGCAGCGUAGUGGACAUCACG [theeternabot_exclusion_KL_Theo_A_25] | K4 kissing-loop RNA reporter | nM | 128
GGAUCCACCAGUGAUGUUGGAGAAAACUCUAAGGAUAUGACGAAAGUCAGAAGGUGGUAGACUGGUCAAAGUCCGGUCGGAUCCA [FmnA10 U30+U66] | K4 kissing-loop RNA reporter | nM | 191
AAUAAUAAUAAAUAAAGAUUGAUGAGCAAACGAGGACCGGUACGGCCGCCACUCGAGUGAUGUUCGAGAAGCUCAUCAAUCAUAA [AK4.8 Exc Tryptophan A] | K4 kissing-loop RNA reporter | nM | 134
AACGCUUGAAUAACAAGCGAAAUAAAUUCGCGAGGACCGGUACGGCCGCCACUCGCUAACUGCGAGUGAUGUUCGAUAAUAAAAU [Mat - Mod of OpenEnded 3 - D15] | K4 kissing-loop RNA reporter | nM | 66.1
AGCGAGUGAUGUUCGCUGAUCAUGAGAAGUUAGGAUAUAUACUUGCAUAGAAGGAACUAUUUCAUGACAUUAGAGGCAGUAGUUC [FMN A SS t7] | K4 kissing-loop RNA reporter | nM | 160
GACCUAAGCUAUGAUACCAGUCUGGCACGAAGAAGUGAUGUUUCCCAGCGUUUGUCACUUGACCCUUGGCAGCAUGCGAUCAGCU [theeternabot_sameState_KL_Theo_B_29] | K4 kissing-loop RNA reporter | nM | 106
